# system name: InhA^V203A (Mycobacterium tuberculosis, UniProt P9WGR1, V203A)
# conditions used: read-out: Ki*^app
readout: Ki
Could you kindly put the unit after your number?

Challenge: // fetch InhA^V203A (Mycobacterium tuberculosis, UniProt P9WGR1, V203A) Ki for CCCCCCc1ccc(Oc2ccccc2C)c(O)c1
Response given: 91.3 nM
